Values were extracted from paper PMC9482650.

pKd values for the binders below.
Target: T1, DLG3_1, Q92796
T1 sequence (Q92796 125-227, limits assumed, looked up): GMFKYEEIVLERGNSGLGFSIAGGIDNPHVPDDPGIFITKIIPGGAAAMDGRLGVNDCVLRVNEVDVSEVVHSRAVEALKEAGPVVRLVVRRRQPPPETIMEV
Assay: holdup assay
Design: key: below the threshold = too weak to quantify, mostly under pKd 3.1 to 4
Conditions: plain residues with an end cap or a label only (N-terminal biotin on a linker: ado-ado)
Format: numeric value only, no unit, no commentary.

Binder	pKd
TNSRHGETTV [FZD2, Q14332]	4.33

Turning now to a further binder:
Input: What value of pKd has been reported for the following binder? KPGKGSETVV [FZD4, Q9ULV1]
Output: 4.28
